Source: patent US20160170302A1

Solubility to Solvent AN for assorted compounds
method: Solubility to organic solvents PM and AN
reported-conditions: solvent: cyclohexanone (AN)

Consider the reported Solubility to Solvent AN for these compounds:
[[record]]
compound = "CCN(CC)C(=O)/C=C/c1ccc(OC)cc1[N+](=O)[O-] [Compound 9]"
recorded_value = ">50 mass %"

[[record]]
compound = "COc1ccc(/C=C/C(=O)n2ccnc2)cc1[N+](=O)[O-] [Compound 6]"
recorded_value = ">50 mass %"

[[record]]
compound = "COc1ccc(/C=C(\\C)C(=O)N2CCCCC2)c([N+](=O)[O-])c1 [Compound 15]"
recorded_value = ">50 mass %"


Returns the measured Solubility to Solvent AN for the input compound. Input: COc1ccc(/C=C/C(=O)N2CCCCC2)cc1[N+](=O)[O-] [Compound 14]
>50 mass %

Returns the measured Solubility to Solvent AN for the input compound. Input: COc1ccc(/C=C(\C)C(=O)N2CCCCC2)cc1[N+](=O)[O-] [Compound 16]
>50 mass %
